Source: patent US20260242735A1

# MEASURED_ON: human CD33 variant K52E (human, UniProt P20138 18-364)
# Sequence (P20138 18-364 K52E limits assumed): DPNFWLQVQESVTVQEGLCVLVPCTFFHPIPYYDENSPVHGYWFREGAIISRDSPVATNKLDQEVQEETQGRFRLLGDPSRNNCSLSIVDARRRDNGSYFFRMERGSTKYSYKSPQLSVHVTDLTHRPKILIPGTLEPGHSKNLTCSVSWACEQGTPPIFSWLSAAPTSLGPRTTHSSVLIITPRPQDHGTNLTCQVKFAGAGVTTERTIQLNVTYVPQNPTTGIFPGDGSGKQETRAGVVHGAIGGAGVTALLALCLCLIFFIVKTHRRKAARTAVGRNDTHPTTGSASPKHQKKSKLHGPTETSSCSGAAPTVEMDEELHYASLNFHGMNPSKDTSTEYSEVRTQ
# TEST_DESCRIPTION: flow cytometry, IgG on cells expressing the mutant
OUTCOME_MEASURE: Mean % WT Binding

Record excerpt, results attached:
Refmab #3 (antibody, human IgG1, V domains shown, Tested in IgG format; human IgG1 Fc silent (PG-LALA)) VH: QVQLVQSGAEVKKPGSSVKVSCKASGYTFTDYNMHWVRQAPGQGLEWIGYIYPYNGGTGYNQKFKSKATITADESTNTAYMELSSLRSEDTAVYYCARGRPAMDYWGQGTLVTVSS VL: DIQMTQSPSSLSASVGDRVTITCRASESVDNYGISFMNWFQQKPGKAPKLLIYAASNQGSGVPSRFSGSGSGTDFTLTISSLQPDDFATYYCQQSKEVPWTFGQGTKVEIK
106 % of WT
Refmab #4 (antibody, human IgG1, V domains shown, Tested in IgG format; human IgG1 Fc silent (PG-LALA)) VH: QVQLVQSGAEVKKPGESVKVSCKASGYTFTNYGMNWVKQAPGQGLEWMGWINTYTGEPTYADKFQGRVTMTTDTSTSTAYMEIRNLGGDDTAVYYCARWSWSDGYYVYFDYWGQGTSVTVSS VL: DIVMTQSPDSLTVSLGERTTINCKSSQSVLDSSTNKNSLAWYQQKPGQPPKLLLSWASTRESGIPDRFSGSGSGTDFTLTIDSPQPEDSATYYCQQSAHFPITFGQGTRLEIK
51.4 % of WT
Refmab #2 (antibody, human IgG1, V domains shown, Tested in IgG format; human IgG1 Fc silent (PG-LALA)) VH: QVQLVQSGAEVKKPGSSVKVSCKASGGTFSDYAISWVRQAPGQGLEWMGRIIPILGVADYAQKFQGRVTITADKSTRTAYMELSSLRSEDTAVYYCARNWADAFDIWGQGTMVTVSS VL: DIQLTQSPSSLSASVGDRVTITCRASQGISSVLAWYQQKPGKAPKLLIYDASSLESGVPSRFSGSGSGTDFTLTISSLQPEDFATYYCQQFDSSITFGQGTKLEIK
52.4 % of WT

We now examine a further binder.
Lookup: May I ask what Mean % WT Binding has been recorded for Refmab #1 (antibody, human IgG1, V domains shown, Tested in IgG format; human IgG1 (Absolute Antibody hP67.6, Cat. No. Ab00283-10.0); also called hP67.6) VH: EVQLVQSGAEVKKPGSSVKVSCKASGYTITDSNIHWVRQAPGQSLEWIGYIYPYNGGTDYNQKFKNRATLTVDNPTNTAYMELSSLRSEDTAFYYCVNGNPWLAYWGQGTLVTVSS VL: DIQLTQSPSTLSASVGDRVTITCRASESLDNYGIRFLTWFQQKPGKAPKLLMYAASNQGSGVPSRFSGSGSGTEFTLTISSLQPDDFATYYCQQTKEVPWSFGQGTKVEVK ?
Found: 98.6 % of WT
